Listing of IC50 toward Hepatocyte growth factor receptor (Homo sapiens), each taken from a published source.

Item: `O=C(Nc1ccc(Oc2ccnc3cc(OCCCN4CCCCC4)c4c(c23)OCCO4)c(F)c1)c1cccn(-c2ccc(F)cc2)c1=O` Test system: Hepatocyte growth factor receptor (Homo sapiens) Read-out: IC50 Value: ?
≤ 50 nM

Item: `CCc1cc(Oc2ccnc3cc(OCCOC)c4c(c23)OCCO4)c(F)cc1NC(=O)c1cn(C)c(=O)n(-c2ccc(F)cc2)c1=O` Test system: Hepatocyte growth factor receptor (Homo sapiens) Read-out: IC50 Value: ?
≤ 50 nM

Item: `O=C(c1cccc(Cl)c1F)c1c[nH]c2ncc(-c3cccnc3)cc12` Test system: Hepatocyte growth factor receptor (Homo sapiens) Read-out: IC50 Value: ?
≤ 10000 nM

Item: `Cn1cc(-c2cc(Oc3ccc(NC(=O)Nc4cncc(C(F)(F)F)c4)cc3)ccn2)cn1` Test system: Hepatocyte growth factor receptor (Homo sapiens) Read-out: IC50 Value: ?
< 10000 nM

Item: CC(c1cccc(NC(=O)OCCCN2CCN(C)CC2)c1)N1N=C(c2ccc(F)c(F)c2)CSC1=O (stereo not shown) Test system: Hepatocyte growth factor receptor (Homo sapiens) Read-out: IC50 Value: ?
10 to 1000 nM

Item: `CCOc1cc2nccc(Oc3ccc(NC(=O)c4cccn(-c5ccc(F)cc5)c4=O)c(Cl)c3)c2c2c1OCCO2` Test system: Hepatocyte growth factor receptor (Homo sapiens) Read-out: IC50 Value: ?
≤ 50 nM

Item: `Cn1cc2cc(Cn3nnc4ncc(-c5ccc(P(C)(C)=O)c(F)c5)nc43)c(F)cc2n1` Test system: Hepatocyte growth factor receptor (Homo sapiens) Read-out: IC50 Value: ?
< 10 nM

----------
Listing of IC50 toward Hepatocyte growth factor receptor (Homo sapiens, UniProt P08581), each taken from a published source.

Item: `Cc1ccc(-c2cc3c(s2)Cc2c(-c4ccc5cn[nH]c5c4)n[nH]c2-3)cn1` Test system: Hepatocyte growth factor receptor (Homo sapiens, UniProt P08581) Read-out: IC50 Value: ?
> 1000 nM

Item: `CCOC(=O)c1ccc(-c2cnc3c(c2)N(C(=O)c2ccccc2)CCN3)cc1` Test system: Hepatocyte growth factor receptor (Homo sapiens, UniProt P08581) Read-out: IC50 Value: ?
10000 to 100000 nM

Item: `CCN(CC)CCCOC(=O)Nc1cccc(Cn2nc(-c3cc(F)cc(F)c3)ccc2=O)c1` Test system: Hepatocyte growth factor receptor (Homo sapiens, UniProt P08581) Read-out: IC50 Value: ?
10 to 1000 nM

Item: `CCNC(=O)c1cccc(-c2ccc3nnc(Cc4ccc5ncccc5c4)n3n2)c1` Test system: Hepatocyte growth factor receptor (Homo sapiens, UniProt P08581) Read-out: IC50 Value: ?
< 100 nM

----------
pIC50: −log10 of the molar value.
Listing of pIC50 toward Hepatocyte growth factor receptor (Homo sapiens, UniProt P08581), each taken from a published source.

Item: `CCOC(=O)Nc1cccc(Cn2nc(-c3ccc(OCCNC(=O)OC(C)(C)C)cc3)ccc2=O)c1` Test system: Hepatocyte growth factor receptor (Homo sapiens, UniProt P08581) Read-out: pIC50 Value: ?
6.00 to 8.00

Item: `O=C(c1cncc(-c2cnc3[nH]cc(-c4ccc5cc[nH]c5c4)c3c2)c1)N1CCOCC1` Test system: Hepatocyte growth factor receptor (Homo sapiens, UniProt P08581) Read-out: pIC50 Value: ?
> 6.00

Item: `CNC(=O)c1ccc(-c2ccc3nnc(Sc4cc5cccnc5cc4C)n3n2)cc1F` Test system: Hepatocyte growth factor receptor (Homo sapiens, UniProt P08581) Read-out: pIC50 Value: ?
> 7.00

Item: `[2H]C1([2H])C([2H])([2H])C2(COc3ccc(F)c(-c4cn([C@H]5C[C@@H](N6CCN(C(C)=O)CC6)C5)c5ncnc(N)c45)c3)OC1([2H])C([2H])([2H])C2([2H])[2H]` Test system: Hepatocyte growth factor receptor (Homo sapiens, UniProt P08581) Read-out: pIC50 Value: ?
< 5.00

Item: `CN1CCN(c2cnc(-c3cccc(Cn4c(=O)sc5ccc(C(F)(F)F)cc54)c3)nc2)CC1` Test system: Hepatocyte growth factor receptor (Homo sapiens, UniProt P08581) Read-out: pIC50 Value: ?
6.00 to 8.00

Item: `COc1cc2nccc(Oc3cc(C)c(NC(=O)c4cn(C)c(=O)n(-c5ccc(F)cc5)c4=O)cc3F)c2c2c1OCCO2` Test system: Hepatocyte growth factor receptor (Homo sapiens, UniProt P08581) Read-out: pIC50 Value: ?
≥ 7.30

Item: `COc1ccc2c(Oc3ccc(NC(=O)c4cc5c(n(-c6ccc(F)cc6)c4=O)N(C)CCO5)cc3F)ccnc2c1` Test system: Hepatocyte growth factor receptor (Homo sapiens, UniProt P08581) Read-out: pIC50 Value: ?
> 8.00
